Each entry below carries its reported inhibition at 3 µM.
STUDY_SYSTEM: Human CaV2.2 channels (Homo sapiens)
Construct: expressed in transfected cells
Sequence (Q00975 whole entry): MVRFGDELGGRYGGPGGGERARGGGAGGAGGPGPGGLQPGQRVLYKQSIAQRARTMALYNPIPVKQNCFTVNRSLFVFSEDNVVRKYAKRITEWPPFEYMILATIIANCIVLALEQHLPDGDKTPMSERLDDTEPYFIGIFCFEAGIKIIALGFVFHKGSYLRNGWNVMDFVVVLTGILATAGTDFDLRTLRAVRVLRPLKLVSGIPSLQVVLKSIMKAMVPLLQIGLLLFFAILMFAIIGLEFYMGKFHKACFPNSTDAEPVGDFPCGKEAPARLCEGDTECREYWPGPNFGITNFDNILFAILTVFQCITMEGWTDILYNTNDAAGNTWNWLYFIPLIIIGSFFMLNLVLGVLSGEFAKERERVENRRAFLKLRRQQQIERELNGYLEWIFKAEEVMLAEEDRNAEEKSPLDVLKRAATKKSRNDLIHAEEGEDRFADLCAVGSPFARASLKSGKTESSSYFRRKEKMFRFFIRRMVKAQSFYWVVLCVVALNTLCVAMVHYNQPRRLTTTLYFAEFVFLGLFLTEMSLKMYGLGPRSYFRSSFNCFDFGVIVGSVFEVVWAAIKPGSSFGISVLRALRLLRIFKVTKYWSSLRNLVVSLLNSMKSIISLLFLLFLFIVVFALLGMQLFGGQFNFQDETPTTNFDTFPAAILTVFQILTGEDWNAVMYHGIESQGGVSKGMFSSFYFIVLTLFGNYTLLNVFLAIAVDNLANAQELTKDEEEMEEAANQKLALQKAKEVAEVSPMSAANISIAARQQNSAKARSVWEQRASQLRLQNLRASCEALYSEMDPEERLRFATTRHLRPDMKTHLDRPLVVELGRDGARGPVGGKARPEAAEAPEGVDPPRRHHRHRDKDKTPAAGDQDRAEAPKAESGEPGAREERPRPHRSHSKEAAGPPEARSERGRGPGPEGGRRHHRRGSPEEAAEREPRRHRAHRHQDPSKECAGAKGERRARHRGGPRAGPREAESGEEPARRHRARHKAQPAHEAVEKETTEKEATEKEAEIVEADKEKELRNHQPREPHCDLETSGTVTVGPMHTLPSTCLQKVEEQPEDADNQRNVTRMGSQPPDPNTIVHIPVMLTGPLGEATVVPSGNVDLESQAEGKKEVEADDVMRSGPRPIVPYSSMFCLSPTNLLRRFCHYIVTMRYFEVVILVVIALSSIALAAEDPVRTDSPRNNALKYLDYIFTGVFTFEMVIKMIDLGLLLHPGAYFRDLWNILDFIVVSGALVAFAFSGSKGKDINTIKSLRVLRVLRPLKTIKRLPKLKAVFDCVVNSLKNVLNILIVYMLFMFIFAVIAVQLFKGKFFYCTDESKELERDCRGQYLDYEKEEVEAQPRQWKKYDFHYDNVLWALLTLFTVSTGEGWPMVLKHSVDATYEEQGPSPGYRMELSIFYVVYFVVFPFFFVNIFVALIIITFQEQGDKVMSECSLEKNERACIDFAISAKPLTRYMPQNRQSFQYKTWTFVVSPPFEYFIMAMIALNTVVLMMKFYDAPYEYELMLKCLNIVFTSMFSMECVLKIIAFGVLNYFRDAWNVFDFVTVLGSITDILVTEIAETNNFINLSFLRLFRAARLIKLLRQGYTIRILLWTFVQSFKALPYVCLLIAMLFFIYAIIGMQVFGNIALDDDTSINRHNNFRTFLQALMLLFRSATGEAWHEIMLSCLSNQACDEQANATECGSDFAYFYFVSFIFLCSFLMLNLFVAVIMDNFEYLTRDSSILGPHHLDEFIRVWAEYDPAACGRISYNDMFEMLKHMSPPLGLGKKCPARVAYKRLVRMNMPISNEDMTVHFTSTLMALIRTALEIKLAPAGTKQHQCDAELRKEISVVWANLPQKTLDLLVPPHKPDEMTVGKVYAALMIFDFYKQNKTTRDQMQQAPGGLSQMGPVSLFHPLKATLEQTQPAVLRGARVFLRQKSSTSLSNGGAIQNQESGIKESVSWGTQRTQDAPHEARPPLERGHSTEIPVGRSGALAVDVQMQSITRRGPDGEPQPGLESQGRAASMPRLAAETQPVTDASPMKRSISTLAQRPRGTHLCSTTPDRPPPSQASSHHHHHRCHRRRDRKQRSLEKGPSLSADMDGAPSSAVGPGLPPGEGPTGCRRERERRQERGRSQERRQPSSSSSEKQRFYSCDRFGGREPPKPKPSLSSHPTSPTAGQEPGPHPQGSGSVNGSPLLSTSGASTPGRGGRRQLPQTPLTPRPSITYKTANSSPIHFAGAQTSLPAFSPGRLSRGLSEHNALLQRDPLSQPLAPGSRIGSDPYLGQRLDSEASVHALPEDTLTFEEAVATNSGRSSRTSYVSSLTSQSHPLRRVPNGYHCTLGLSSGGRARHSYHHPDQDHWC
Sequence (P54289 25-1103, further chain): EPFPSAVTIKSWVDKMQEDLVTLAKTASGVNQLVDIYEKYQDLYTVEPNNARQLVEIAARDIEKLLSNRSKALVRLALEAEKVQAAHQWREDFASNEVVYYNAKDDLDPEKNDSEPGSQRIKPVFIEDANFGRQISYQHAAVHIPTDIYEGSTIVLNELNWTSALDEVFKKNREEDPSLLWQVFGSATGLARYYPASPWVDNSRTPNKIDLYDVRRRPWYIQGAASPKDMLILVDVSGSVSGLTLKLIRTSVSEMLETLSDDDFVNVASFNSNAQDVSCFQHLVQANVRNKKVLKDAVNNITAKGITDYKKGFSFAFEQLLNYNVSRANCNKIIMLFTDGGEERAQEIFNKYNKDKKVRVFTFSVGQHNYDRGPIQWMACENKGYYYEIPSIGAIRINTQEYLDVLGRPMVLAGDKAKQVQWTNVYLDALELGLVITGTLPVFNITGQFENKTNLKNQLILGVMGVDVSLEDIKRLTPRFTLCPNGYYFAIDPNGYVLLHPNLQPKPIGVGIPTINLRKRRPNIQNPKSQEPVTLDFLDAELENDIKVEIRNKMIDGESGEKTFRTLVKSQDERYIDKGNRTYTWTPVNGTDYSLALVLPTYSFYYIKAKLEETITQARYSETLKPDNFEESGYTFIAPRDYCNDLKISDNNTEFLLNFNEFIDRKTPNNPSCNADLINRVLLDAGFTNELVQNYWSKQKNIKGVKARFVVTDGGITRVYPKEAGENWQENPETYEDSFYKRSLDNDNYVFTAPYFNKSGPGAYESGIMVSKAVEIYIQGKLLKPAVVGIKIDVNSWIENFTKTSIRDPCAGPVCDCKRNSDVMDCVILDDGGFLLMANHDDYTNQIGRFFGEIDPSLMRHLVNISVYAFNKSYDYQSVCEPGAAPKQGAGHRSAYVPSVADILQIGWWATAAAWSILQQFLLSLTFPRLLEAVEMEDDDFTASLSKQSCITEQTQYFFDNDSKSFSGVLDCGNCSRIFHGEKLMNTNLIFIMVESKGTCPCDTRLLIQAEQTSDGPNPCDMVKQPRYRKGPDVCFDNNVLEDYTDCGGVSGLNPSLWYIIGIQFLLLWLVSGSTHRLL
Sequence (P54284 whole entry, further chain): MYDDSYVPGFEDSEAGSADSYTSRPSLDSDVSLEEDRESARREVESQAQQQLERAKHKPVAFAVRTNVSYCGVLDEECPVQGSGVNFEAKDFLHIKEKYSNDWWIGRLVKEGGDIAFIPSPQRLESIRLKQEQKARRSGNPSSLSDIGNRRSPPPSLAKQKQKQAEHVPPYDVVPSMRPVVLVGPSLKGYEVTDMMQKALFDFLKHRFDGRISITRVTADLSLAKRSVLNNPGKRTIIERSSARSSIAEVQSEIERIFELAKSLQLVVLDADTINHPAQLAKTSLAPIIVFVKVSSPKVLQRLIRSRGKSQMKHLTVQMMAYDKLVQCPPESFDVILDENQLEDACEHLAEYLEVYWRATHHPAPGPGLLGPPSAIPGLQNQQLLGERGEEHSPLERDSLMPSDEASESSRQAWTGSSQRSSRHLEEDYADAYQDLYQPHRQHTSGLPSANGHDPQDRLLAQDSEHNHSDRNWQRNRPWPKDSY
PROTOCOL_DETAILS: Fluorescent assay for CaV2.2 channels using potassium depolarization to induce channel opening (FLIPR, Fluo-4)
Format: cell-based
EXPERIMENTAL_PARAMETERS: 3 μM test compound, 30 mM KCl, HEK293 cells stably expressing human CaV2.2; read-out: %-Inhib (CaV2.2) @3 μM @30 mM KCl

Some solved entries appear below for comparison.
- Cc1c(-c2ccc(Cl)cc2)c(C(=O)N(C)CC(C)(C)CN2CCOCC2)n(Cc2ccccc2)c1C(F)(F)F: > 95%
- Cc1c(-c2ccc(Cl)cc2)c(C(=O)N2CCS(=O)(=O)CC2)n(Cc2ccccc2)c1C(F)(F)F: 75 to 95%
- CN(CC(C)(C)C)C(=O)c1c(-c2ccc(Cl)cc2)cc(C(F)(F)F)n1Cc1cccc(S(C)(=O)=O)c1: 75 to 95%
- Cc1c(-c2ccc(Cl)cc2F)c(C(=O)N2CCCC2CS(C)(=O)=O)n(Cc2ccccc2)c1C(F)(F)F (centres unmarked): > 95%
- CN(CC(C)(C)C)C(=O)c1c(-c2ccc(Cl)cc2)cc(C(F)(F)F)n1Cc1ccc(F)cc1: 75 to 95%

Input line: Write down inhibition at 3 µM measured for item Cc1c(-c2ccc(Cl)cc2F)c(C(=O)N(C)CC(C)(C)CO)n(Cc2ccccc2)c1C(F)(F)F
Output line: > 95%

Input line: Quick one: give measured inhibition at 3 µM for Cc1c(-c2ccc(Cl)cc2)c(C(=O)N(C)Cc2nccn2C)n(Cc2ccccc2)c1C(F)(F)F
Output line: > 95%

Input line: Specify measured inhibition at 3 µM for CN(C(=O)c1c(-c2ccc(Cl)cc2)cc(C(F)(F)F)n1Cc1ccccc1)C(CO)C(C)(C)C (centres unmarked) .
Output line: > 95%

Input line: Identify measured inhibition at 3 µM associated with Cc1c(-c2ccc(Cl)cc2)c(C(=O)N2CCN(C)C(=O)C2)n(Cc2ccccc2)c1C(F)(F)F
Output line: 75 to 95%

Input line: Give reported inhibition at 3 µM value for Cc1c(-c2ccc(Cl)c(F)c2)c(C(=O)N(C)C(C)(C)CO)n(Cc2ccccc2)c1C(F)(F)F
Output line: 75 to 95%

Input line: Give inhibition at 3 µM for the following compound: Cc1c(-c2ccc(Cl)cc2)c(C(=O)N(C)CC(C)(C)C)n(Cc2ccccc2)c1C(F)F
Output line: > 95%

Input line: Read off the recorded inhibition at 3 µM for Cc1c(-c2ccc(Cl)cc2F)c(C(=O)NC2CC2)n(Cc2ccccc2)c1C(F)(F)F
Output line: 75 to 95%

Input line: Supply recorded inhibition at 3 µM for Cc1c(-c2ccc(C(F)(F)F)cc2)c(C(=O)N(C)CC(C)(C)CO)n(Cc2ccccc2)c1C(F)(F)F here.
Output line: 75 to 95%

Input line: Name the recorded inhibition at 3 µM of the item CN(CC1(C)COC1)C(=O)c1c(-c2ccc(Cl)cc2)cc(C(F)(F)F)n1Cc1ccccc1 in your answer.
Output line: > 95%
